- Method Description: Metabolic stability in human liver microsomes assessed as compound remaining after 20 mins
- Format: ADME
- Condition Summary: read-out: Stability
Measurement Type: remaining at 20 min (%)
Give just the number in %; leave the unit off.

Illustrative cases are given below, each with its answer.
In [3]: df
Out[3]:
                               input_smiles     measurement_type  obs_value
0  N=C(N)c1ccc(Oc2cc(Oc3ccc(C(=N)N)cc3)cc(C(=O)O[C@H]3CC[C@H](N)CC3)c2)cc1  remaining at 20 min         54
1  N=C(N)c1ccc(Oc2cc(NC(=O)[C@H]3CC[C@H](N)CC3)cc(Oc3ccc(C(=N)N)cc3)c2)cc1  remaining at 20 min         97

Could you now consider this next molecule?
Reported remaining at 20 min for N=C(N)c1ccc(Oc2cc(Oc3ccc(C(=N)N)cc3)cc(C(=O)N[C@H]3CC[C@H](N)CC3)c2)cc1 was 85

====

Listing: pKi of selected molecules
- Experimental System: Suppressor of tumorigenicity 14 protein (Homo sapiens)
- Sequence (Q9Y5Y6 whole entry): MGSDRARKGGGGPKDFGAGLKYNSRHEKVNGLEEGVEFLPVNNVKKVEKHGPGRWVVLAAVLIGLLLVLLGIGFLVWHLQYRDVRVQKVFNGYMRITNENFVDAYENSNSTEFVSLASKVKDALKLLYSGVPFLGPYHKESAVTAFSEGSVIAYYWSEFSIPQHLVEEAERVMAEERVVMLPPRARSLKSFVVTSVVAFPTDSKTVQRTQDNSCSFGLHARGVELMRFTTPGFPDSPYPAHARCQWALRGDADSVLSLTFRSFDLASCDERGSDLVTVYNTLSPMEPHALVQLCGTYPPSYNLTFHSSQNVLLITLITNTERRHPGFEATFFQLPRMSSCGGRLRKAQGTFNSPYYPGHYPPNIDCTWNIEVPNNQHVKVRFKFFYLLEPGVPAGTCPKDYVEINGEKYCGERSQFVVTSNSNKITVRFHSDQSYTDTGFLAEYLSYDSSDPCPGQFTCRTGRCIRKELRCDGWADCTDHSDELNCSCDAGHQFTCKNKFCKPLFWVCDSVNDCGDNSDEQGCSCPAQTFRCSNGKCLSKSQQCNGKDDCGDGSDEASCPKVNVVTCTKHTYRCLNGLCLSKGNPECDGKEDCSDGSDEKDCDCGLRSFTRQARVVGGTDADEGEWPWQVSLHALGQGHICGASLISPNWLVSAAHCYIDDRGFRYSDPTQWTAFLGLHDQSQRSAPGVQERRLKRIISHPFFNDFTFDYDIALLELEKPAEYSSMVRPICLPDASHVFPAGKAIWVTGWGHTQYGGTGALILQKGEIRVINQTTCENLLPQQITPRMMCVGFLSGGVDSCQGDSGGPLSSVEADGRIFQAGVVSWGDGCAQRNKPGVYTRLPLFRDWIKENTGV
- Method Description: Inhibition of recombinant matriptase (unknown origin) using Boc-Gln-Ala-Arg-7-amido-4-methyl coumarin hydrobromide
Please report pKi as the negative decimal logarithm of the molar concentration, giving only the number.

>>> df
                                   molecule                       experimental_system  obs_value
0  N=C(N)c1ccc(Oc2cc(OCc3ccc(Br)cc3)cc(C(=O)N[C@H]3CC[C@H](N)CC3)c2)cc1  Suppressor of tumorigenicity 14 protein (Homo sapiens)       6.59
1  N=C(N)c1ccc(Oc2cc(Oc3ccc(C(=N)N)cc3)cc(C(=O)N[C@H]3CC[C@H](N)CC3)c2)cc1  Suppressor of tumorigenicity 14 protein (Homo sapiens)       8.00
2  N=C(N)c1ccc(Oc2cc(Oc3ccc(C(=N)N)cc3)cc(C(=O)NC3CCCCC3)c2)cc1  Suppressor of tumorigenicity 14 protein (Homo sapiens)       6.23
3  N=C(N)c1ccc(Oc2cc(Oc3ccc(NC(=O)CCN)cc3)cc(C(=O)N[C@H]3CC[C@H](N)CC3)c2)cc1  Suppressor of tumorigenicity 14 protein (Homo sapiens)       6.94

Reading of pKi for N=C(N)c1ccc(Oc2cc(NC(=O)C3CCN(C(=O)CCN)CC3)cc(Oc3ccc(C(=N)N)cc3)c2)cc1 with Suppressor of tumorigenicity 14 protein (Homo sapiens): 7.21

Query CC1CCC(NC(=O)c2cc(Oc3ccc(C(=N)N)cc3)cc(Oc3ccc(C(=N)N)cc3)c2)CC1 (configuration not stated) on Suppressor of tumorigenicity 14 protein (Homo sapiens); pKi returned: 6.11
